Value source: paper PMC9090415

Provide the recorded % inhibition T4 90' for the entries that follow.
Target: bacteriophage T4 DNA polymerase (Enterobacteria phage T4, UniProt P04415)
Construct: made in house
Sequence (P04415 1-898): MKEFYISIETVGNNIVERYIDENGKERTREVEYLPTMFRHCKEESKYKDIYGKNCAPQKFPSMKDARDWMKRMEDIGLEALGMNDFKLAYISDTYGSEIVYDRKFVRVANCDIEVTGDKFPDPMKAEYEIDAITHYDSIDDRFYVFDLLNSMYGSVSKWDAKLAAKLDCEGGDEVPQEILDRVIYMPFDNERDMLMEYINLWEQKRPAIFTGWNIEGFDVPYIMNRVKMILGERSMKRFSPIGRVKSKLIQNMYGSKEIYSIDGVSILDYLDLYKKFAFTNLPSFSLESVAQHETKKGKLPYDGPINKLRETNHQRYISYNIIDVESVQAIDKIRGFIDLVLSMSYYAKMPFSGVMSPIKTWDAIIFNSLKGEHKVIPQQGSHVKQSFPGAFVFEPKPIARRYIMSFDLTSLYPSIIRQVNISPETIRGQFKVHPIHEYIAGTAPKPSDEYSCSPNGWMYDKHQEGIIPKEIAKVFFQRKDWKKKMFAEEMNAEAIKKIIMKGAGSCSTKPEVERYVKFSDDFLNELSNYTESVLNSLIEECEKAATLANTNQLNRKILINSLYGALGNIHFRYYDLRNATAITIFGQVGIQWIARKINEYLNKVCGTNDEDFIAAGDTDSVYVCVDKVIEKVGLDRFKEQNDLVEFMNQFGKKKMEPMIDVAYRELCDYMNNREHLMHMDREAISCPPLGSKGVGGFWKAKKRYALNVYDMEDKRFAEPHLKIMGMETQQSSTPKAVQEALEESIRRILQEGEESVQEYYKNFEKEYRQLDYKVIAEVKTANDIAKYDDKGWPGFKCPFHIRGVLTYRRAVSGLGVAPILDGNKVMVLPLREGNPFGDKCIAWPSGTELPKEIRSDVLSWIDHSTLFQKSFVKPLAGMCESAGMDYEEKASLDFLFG
Test: Counter-screen against bacteriophage T4 DNA polymerase
Type: biochemical
Conditions: DRC-2; 90'; concentration 40
Give bare numbers, in %.

# compound, measurement units, % inhibition T4 90'
records = [
    ("CCCCC(=O)N1CCc2c(nc3cc(-c4ccccc4Cl)[nH]n3c2=O)C1 [Molecule 37]", "%", 5),
]

Would you mind giving % inhibition T4 90' for every compound in the list below?
1. CC1(C)CC(=O)C2=C(C1)OC1=C(C(=O)CC(C)(C)C1)C2c1ccc(O)cc1 [KU0194226]
2. O=C1C(=Cc2ccccc2O)Oc2ccc(O)cc21 [KU0196475]
3. Cc1ccc(-n2nnc(C(=O)O)c2-c2ccccn2)c(F)c1 [Molecule 54, Cc1ccc(c(c1)F)n1nnc(c1c1ccccn1)C(=O)O]

1: 12; 2: 34; 3: 23

Items follow; give % inhibition T4 90' for each.
1. COc1cccc(C(=O)N2CCc3c(nc4cc(-c5ccccc5)[nH]n4c3=O)C2)c1OC [Molecule 22]
2. Cc1ccc2c(C(=O)NCCc3cccnc3)cc(NC(=O)C(C)C)cc2n1 [KU0206096]
3. O=C1N=C(Nc2cccc(Cl)c2Cl)S/C1=C\c1ccco1 [Molecule 3, O=C1N=C(S/C/1=C\c1ccco1)Nc1cccc(c1Cl)Cl]
4. O=c1[nH]c2ccc([N+](=O)[O-])cc2c(-c2ccccc2)c1Sc1nc2ccccc2o1 [KU0067471]

1: -28; 2: 34; 3: 30; 4: 47
